Entry source: patent US11084808B2

system: human blood; experiment: In vitro anticoagulant effect on human blood (APTT, CT2); assay type: biochemical; conditions: Table 2; concentration of the compound corresponding to 2 times the APTT of the blank control; human plasma
We use 4 µM as the dividing line for CT2 (compound concentration doubling APTT): on or above the line is T, below is F.

Examples with answers:
COc1cn(C(Cc2ccn(C3CC3)n2)C(=O)Nc2ccc(C(=O)O)cc2)c(=O)cc1-c1cc(Cl)ccc1C(C)=O (centres unmarked) = F
COc1cn([C@@H](Cc2ccccn2)C(=O)Nc2ccc(C(=O)O)cc2)c(=O)cc1-c1cc(Cl)ccc1C(C)=O = T
COc1cn([C@H](Cc2cnn(C)c2)C(=O)Nc2ccc(C(=O)O)cc2)c(=O)cc1-c1cc(Cl)ccc1C(C)=O = T

Query block: Would you say COc1cn(C(Cc2ccn(C3CC3)n2)C(=O)Nc2ccc3nccnc3c2)c(=O)cc1-c1cc(Cl)ccc1C(C)=O (centres unmarked) shows CT2 (compound concentration doubling APTT) at minimum 4 µM?
Result block: T

Query block: Assess whether reported CT2 (compound concentration doubling APTT) for CCC(=O)c1ccc(Cl)cc1-c1cc(=O)n([C@@H](CCOC(C)(C)C)C(=O)Nc2ccc(C(=O)O)cc2)cc1OC sits at 4 µM or higher.
Result block: F

Query block: For this molecule, is measured CT2 (compound concentration doubling APTT) 4 µM or higher? CCC(=O)c1ccc(Cl)cc1-c1cc(=O)n(C(Cc2ccn(C)n2)C(=O)Nc2ccc(C(=O)O)cc2)cc1OC (centres unmarked)
Result block: F

Query block: Hello, I need to know if COCC[C@@H](C(=O)Nc1ccc2[nH]c(C(=O)O)cc2c1)n1cc(OC)c(-c2cc(Cl)ccc2C(C)=O)cc1=O has measured CT2 (compound concentration doubling APTT) not below 4 µM. Thanks!
Result block: F

Query block: Textbook exercise: given the entry COc1cn([C@@H](Cc2ccccc2)C(=O)Nc2ccc(C(N)=O)cc2)c(=O)cc1-c1cc(Cl)ccc1C(C)=O , state whether its CT2 (compound concentration doubling APTT) is greater than or equal to 4 µM.
Result block: T

Query block: CT2 (compound concentration doubling APTT) >= 4 µM for CCC(=O)c1ccc(Cl)cc1-c1cc(=O)n([C@@H](CCOC(C)(C)C)C(=O)Nc2ccc3nccnc3c2)cc1OC ?
Result block: F

Query block: Does COc1cn([C@H](CCOC2CCC2)C(=O)Nc2ccc(C(=O)O)cc2)c(=O)cc1-c1cc(Cl)ccc1C(C)=O have a reported CT2 (compound concentration doubling APTT) of at least 4 µM?
Result block: T

Query block: Quick check, CT2 (compound concentration doubling APTT) >= 4 µM? COc1cn([C@H](CC2CCC2)C(=O)Nc2ccc(C(=O)O)cc2)c(=O)cc1-c1c(C(C)=O)ccc(Cl)c1F
Result block: F

Query block: Kindly determine if CT2 (compound concentration doubling APTT) recorded for [2H]C([2H])([2H])Oc1cn([C@@H](CCOC(C)(C)C)C(=O)Nc2ccc(C(=O)O)cc2)c(=O)cc1-c1cc(Cl)ccc1C(=O)CC is above or exactly 4 µM.
Result block: F

Query block: Is it the case that COc1cn(C(Cc2ccccc2)C(=O)Nc2ccc(C(=O)O)cc2)c(=O)cc1-c1cc(Cl)ccc1C(=O)CC1CC1 (centres unmarked) has CT2 (compound concentration doubling APTT) reaching or exceeding 4 µM?
Result block: T

Query block: Given the entry CCC(=O)c1ccc(Cl)cc1-c1cc(=O)n([C@@H](Cc2ccn(C3CC3)n2)C(=O)Nc2ccc(C(=O)O)cc2)cc1OC , answer whether its CT2 (compound concentration doubling APTT) meets or surpasses 4 µM.
Result block: F
